Counter-ions that a name gives are not always drawn.
Entries and their measured melting point follow.

C[C@H](N)Cn1ncc2ccc3oc(C(=O)NCCCN4CCCC4=O)cc3c21 (as salt: fumarate): 82 °C
C[C@H](N)Cn1ncc2ccc3oc(C(=O)NCC4(O)CC4)cc3c21 (as salt: fumarate): 77 to 79 °C
CC(=O)Nc1ccc(S(=O)(=O)NCc2cc3c(ccc4cnn(C[C@H](C)N)c43)o2)cc1: 80 to 85 °C
CC(O)CNC(=O)c1cc2c(ccc3cnn(C[C@H](C)N)c32)o1 (stereo partly drawn) (as salt: fumarate): 190 to 191 °C
C[C@H](N)Cn1ncc2ccc3oc(C(=O)NCCc4cnc[nH]4)cc3c21.O=C(O)/C=C/C(=O)O: 201 to 203 °C

Moving on to the next molecule.
Value of measured melting point for the entry Cc1ccc(CNC(=O)c2cc3c(ccc4cnn(C[C@H](C)N)c43)o2)o1 (as salt: fumarate) : 118 to 120 °C

###

Entries and their measured melting point follow.
Where a name gives a salt, the structure may show the parent alone.

Solved entries (count: 5):
COCCNC(=O)c1cc2c(ccc3cnn(C[C@H](C)N)c32)o1 (as salt: fumarate): 75 to 76 °C
Cc1noc(-c2cc3c(ccc4cnn(C[C@H](C)N)c43)o2)n1 (as salt: fumarate): 187 to 189 °C
CNC(=O)c1cc2c(ccc3cnn(C[C@H](C)N)c32)o1.O=C(O)/C=C/C(=O)O: 180 to 182 °C
C[C@H](N)Cn1ncc2ccc3oc(CO)cc3c21: 110 to 112 °C
C[C@H](N)Cn1ncc2ccc3oc(C(=O)NCC(C)(C)CO)cc3c21 (as salt: fumarate): 103 °C

Value of measured melting point for the entry C[C@H](N)Cn1ncc2ccc3oc(C(N)=O)cc3c21 (as salt: fumarate) : 170 to 172 °C

Value of measured melting point for the entry CC(=O)NCCCNC(=O)c1cc2c(ccc3cnn(C[C@H](C)N)c32)o1 (as salt: fumarate) : 81 °C

Value of measured melting point for the entry CCOC(=O)c1cc2c(ccc3cnn(C[C@H](C)N)c32)o1.O=C(O)/C=C/C(=O)O : 184 to 185 °C

###

Biological target: 5HT2A(rat) (Rattus norvegicus)
Sequence (P14842 whole entry): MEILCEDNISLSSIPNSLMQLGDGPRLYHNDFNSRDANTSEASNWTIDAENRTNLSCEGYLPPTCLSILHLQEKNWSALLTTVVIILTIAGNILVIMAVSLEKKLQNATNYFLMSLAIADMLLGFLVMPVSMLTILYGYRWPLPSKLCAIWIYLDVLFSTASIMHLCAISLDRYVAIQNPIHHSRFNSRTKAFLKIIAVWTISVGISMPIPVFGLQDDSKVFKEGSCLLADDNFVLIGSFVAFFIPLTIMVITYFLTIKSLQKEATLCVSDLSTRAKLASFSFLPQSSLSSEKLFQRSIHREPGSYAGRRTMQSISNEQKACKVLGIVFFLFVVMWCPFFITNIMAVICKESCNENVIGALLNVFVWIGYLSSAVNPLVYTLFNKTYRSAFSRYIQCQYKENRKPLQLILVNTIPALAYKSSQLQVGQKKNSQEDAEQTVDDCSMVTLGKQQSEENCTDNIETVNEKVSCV
Assay: 5HT2 Functional Assay: [Ca2+]i Mobilization (FLIPR, A7r5 cells)
Type: cell-based
Design: endogenous in cells; host or cells: A7r5 rat vascular smooth muscle cells
Settings: percentage of maximum 5-HT-induced response, A7r5 cells
Procedure: The receptor-mediated mobilization on intracellular calcium ([Ca^2+]i) was studied using the Fluorescence Imaging Plate Reader (FLIPR) instrument. […] The compound plate and cell plate were placed in the FLIPR instrument. At the beginning of an experimental run, a signal test was performed to check the basal fluorescence signal from the dye-loaded cells and the uniformity of the signal across the plate. […]
Where a name gives a salt, the structure may show the parent alone.
assay.endpoint: Emax (%)
Record the value in %, omitting the unit from your answer.

C[C@H](N)Cn1ncc2ccc3oc(CN4CCN(c5ccccn5)CC4)cc3c21 [Example 20]: 81
C[C@H](N)Cn1ncc2ccc3oc(C(=O)NCCN4CCOCC4)cc3c21 [Example 7]: 89

Value of measured Emax for the entry CC(O)CNC(=O)c1cc2c(ccc3cnn(C[C@H](C)N)c32)o1 (some centres unmarked) [Example 9] : 98

Value of measured Emax for the entry C[C@H](N)Cn1ncc2ccc3oc(C(N)=O)cc3c21 [Example 3] : 87

Value of measured Emax for the entry CNC(=O)c1cc2c(ccc3cnn(C[C@H](C)N)c32)o1.O=C(O)/C=C/C(=O)O [Example 4, fumarate] : 98

Value of measured Emax for the entry C[C@H](N)Cn1ncc2ccc3oc(C(=O)NCC4(O)CC4)cc3c21 [Example 10] : 94

Value of measured Emax for the entry C[C@H](N)Cn1ncc2ccc3oc(C(=O)NCCO)cc3c21 [Example 5, fumarate] : 94

Value of measured Emax for the entry C[C@H](N)Cn1ncc2ccc3oc(C(=O)NCCc4cnc[nH]4)cc3c21.O=C(O)/C=C/C(=O)O [Example 6, fumarate] : 95

Value of measured Emax for the entry CCNC(=O)NCc1cc2c(ccc3cnn(C[C@H](C)N)c32)o1 [Example 18] : 87

Value of measured Emax for the entry COCCNC(=O)c1cc2c(ccc3cnn(C[C@H](C)N)c32)o1 [Example 8] : 94

Value of measured Emax for the entry C[C@H](N)Cn1ncc2ccc3oc(C(=O)NCCCN4CCCC4=O)cc3c21 [Example 13] : 87

Value of measured Emax for the entry CC(=O)NCCCNC(=O)c1cc2c(ccc3cnn(C[C@H](C)N)c32)o1 [Example 12] : 95

Value of measured Emax for the entry C[C@H](N)Cn1ncc2ccc3oc(C(=O)NCC(C)(C)CO)cc3c21 [Example 11] : 76

Value of measured Emax for the entry CNC(=O)Cc1cc2c(ccc3cnn(C[C@H](C)N)c32)o1 [Example 16] : 97

Value of measured Emax for the entry C[C@H](N)Cn1ncc2ccc3oc(CNC(=O)c4cccnc4)cc3c21 [Example 17] : 95

Value of measured Emax for the entry CCOC(=O)c1cc2c(ccc3cnn(C[C@H](C)N)c32)o1.O=C(O)/C=C/C(=O)O [Example 1, fumarate] : 101
